test system: Dd2; experiment: qHTS profiling for inhibitors of Plasmodium falciparum proliferation (AID 504749);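 further: 0% = DMSO vehicle and full inhibition = artemisinin control; nearly all actives have a fitted effect of over 60% in size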; details: P. falciparum in erythrocytes, SYBR Green DNA, 72 h; series mostly up to 28.7 µM
Records with an inconclusive call do not appear. Calls of active or inactive are those of the source. The call rests on the fitted dose curve; in most records, active means well fitted inhibition curve with a large enough effect; inconclusive means small, poorly fitted or top-dose-only effect; inactive means flat fitted curve, though single readings scatter.
// classify into class 1 (active), class 0 (inactive)

stdin: Give the logged outcome of this assay for the following molecule: CCCCCCCC/C=C\CCCCCCCC(=O)O
stdout: class 0

stdin: Give the logged outcome of this assay for the following molecule: O=C(O)CN(CCN(CC(=O)O)CC(=O)O)CC(=O)O
stdout: class 0

###

system: HEK293T; assay: qHTS assay to identify novel small-molecules to repurpose for Merkel cell carcinoma treatment (AID 1296009); details: MCC and control cell lines, CellTiter-Glo viability, 72 h; series mostly up to 44.8 µM; further: nearly all actives have a fitted effect of over 60% in size
Inconclusive results are not listed. The source made the active and inactive calls. Calls come from the whole dose curve; as a rule, active = well fitted inhibition curve with a large enough effect; inconclusive = small, poorly fitted or top-dose-only effect; inactive = flat fitted curve, though single readings scatter.
metric: outcome

CC(C)c1ccc(CC(=O)N2CCC[C@@H](c3cccc(OC(C)(C)C(=O)O)c3)C2)cc1 :: inactive
COC1(CC(C)C)NC(=O)C(O)(Cc2ccccc2)NC1=O (stereo not drawn) :: inactive
CC(C)(C)c1cc(CN2CCN(CC(O)c3ccc(Cl)cc3)CC2)cc(C(C)(C)C)c1O (stereo not drawn) :: inactive
COc1cc(C2Oc3c(O)cc(CCCO)cc3C2CO)ccc1O[C@H]1O[C@H](C)[C@@H](O)[C@H](O)[C@@H]1O (stereo partly drawn) :: inactive
O=C(NCc1ccc(OC(F)(F)F)cc1)C1c2ccccc2C(=O)N1C1CCOCC1 (stereo not drawn) :: inactive
Cc1cc(O)cc(Oc2cc(C)c(C(=O)O)c(O)c2)c1 :: inactive

Per the record, O=C1C[C@@H](c2ccc(O)cc2)Oc2cc(O)ccc21 has outcome of inactive

For this compound ( C=C1CC[C@H]2[C@@](C)(CCC[C@@]2(C)C(=O)O)[C@@H]1CCC(C)CCO (stereo partly drawn) ), measured outcome is inactive

outcome for COc1cc(/C=C/CO)ccc1O[C@@H]1O[C@H](CO)[C@@H](O)[C@H](O)[C@H]1O is inactive

// outcome lookup, compound = CC1=CC(=O)C2C(C)(C)CCCC2(C)C12CCC1(COC(=O)C1)O2 (stereo not drawn) , result: inactive

Recorded outcome (compound Clc1ccc2c(c1)C1=NCCN1c1c(-c3noc(C4CC4)n3)ncn1-2 ): inactive

Per the record, COC1CCCC/C(C)=C/C2C=C(C)C(C)C3C(CC(C)C)NC(=O)C23C(=O)C1 (stereo not drawn) has outcome of inactive

Consider O=C(O)CCc1cc2ccoc2cc1O[C@@H]1O[C@H](CO[C@@H]2OC[C@](O)(CO)[C@H]2O)[C@@H](O)[C@H](O)[C@H]1O . Its measured outcome is inactive

###

assay: Primary qHTS for inhibitors of nuclear receptor binding SET domain protein 2 (NSD2) in an RCH-ACV wild type WT cells (2C) (AID 1645877); settings: RCH-ACV (leukaemia line) NSD2 WT (2C) viability, CellTiter-Glo, 72 h; series mostly up to 44.9 µM; further: nearly all actives have a fitted effect of over 70% in size
Inconclusive results are not listed. Activity calls are given as the source filed them. The call rests on the fitted dose curve; in most records, active means well fitted inhibition curve with a large enough effect; inconclusive means small, poorly fitted or top-dose-only effect; inactive means no such curve, though single readings can be large or run the other way.
metric: activity change, negative = cell killing

Below are worked cases with known answers.
CC1NC(=O)C(Cc2c[nH]c3ccccc23)NC1=O (configuration not stated) :: inactive
CC(=O)NCCCCn1c2c(c3ccccc31)C(=O)NCC2 :: inactive
CC(=O)N1CCN(NC(=O)c2ccc(F)cc2)CC1 :: inactive
C[C@H]1[C@H](C)CC[C@]2(C(=O)O)CC[C@]3(C(=O)O)C(=CCC4[C@@]5(C)CC[C@H](O[C@@H]6O[C@H](C)[C@@H](O)[C@H](O)[C@H]6O)C(C)(C)C5CC[C@]43C)[C@H]12 (some centres not stated) :: inactive
CC(C)(O)c1ccc2c(c1)C(=O)CC1[C@](C)(CO)CCC[C@]21C (some centres not stated) :: inactive
CC1CC(=O)C2=C(O1)OC1(C)CCC3C(C)(C)C=CC(=O)C3(C)C1C2 (configuration not stated) :: inactive
CC1=CC(=O)C[C@H]2[C@@H]1CC[C@@H](C)[C@]21CO[C@H](c2ccoc2)C1=O :: inactive
Cn1ccnc1CCOC(c1cc2nccc(C(=O)O)c2[nH]1)c1ccccc1Cl (configuration not stated) :: inactive

Form: compound = CC(C)N(C[C@H]1O[C@@H](n2cnc3c(N)ncnc32)[C@H](O)[C@@H]1O)C1CC(CCc2nc3ccc(C(C)(C)C)cc3[nH]2)C1 (some centres not stated) ; activity change, negative = cell killing = inactive
